experimental-system: TAG-72 positive bovine submaxillary mucin (BSM) (bovine)
assay-explanation: relative affinity constant from competition RIA on BSM
parameter: Ka (M⁻¹)
Answers are plain numbers, in M⁻¹.

# annotated cases, reported Ka shown
{"columns": ["binder", "parameter", "value"],
 "data": [
  ["humanized monoclonal antibody HuCC49 (parental HuCC49) (antibody, V domains shown) VH: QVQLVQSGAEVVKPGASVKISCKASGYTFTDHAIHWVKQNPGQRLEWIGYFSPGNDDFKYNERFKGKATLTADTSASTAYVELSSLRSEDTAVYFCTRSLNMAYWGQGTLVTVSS VL: DIVMSQSPDSLAVSLGERVTLNCKSSQSLLYSGNQKNYLAWYQQKPGQSPKLLIYWASARESGVPDRFSGSGSGTDFTLTISSVQAEDVAVYYCQQYYSYPLTFGAGTKLELK", "Ka", "3.2e+08"],
  ["HuCC49 SDR variant ^97L (antibody, V domains shown) VH: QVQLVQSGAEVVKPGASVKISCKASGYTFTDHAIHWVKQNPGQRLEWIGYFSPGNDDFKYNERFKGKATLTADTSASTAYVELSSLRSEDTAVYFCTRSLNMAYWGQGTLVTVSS VL: DIVMSQSPDSLAVSLGERVTLNCKSSQSLLYSGNQKNYLAWYQQKPGQSPKLLIYWASARESGVPDRFSGSGSGTDFTLTISSVQAEDVAVYYCQQYYSYPLSFGAGTKLELK", "Ka", "3.6e+08"]
]}

Task item: What does the data say about its Ka? Entry: HuCC49 SDR variant ^60-62,64H (antibody, V domains shown) VH: QVQLVQSGAEVVKPGASVKISCKASGYTFTDHAIHWVKQNPGQRLEWIGYFSPGNDDFKYSQKFQGKATLTADTSASTAYVELSSLRSEDTAVYFCTRSLNMAYWGQGTLVTVSS VL: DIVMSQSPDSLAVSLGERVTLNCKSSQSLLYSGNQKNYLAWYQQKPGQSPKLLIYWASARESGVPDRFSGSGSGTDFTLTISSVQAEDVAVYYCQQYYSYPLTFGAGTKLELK
Reply: 2.2e+08
